system: P12-Ichikawa; assay: AUC of viability dose-response curve (% viability x log10 dose units); higher = less sensitive; details: RPMI 5 mM glucose + 10% dialyzed FBS; 48 h
endpoint.name: AUC of viability dose-response curve
The reply should be a number, written without any unit.

Give me measured AUC of viability dose-response curve, please, for this compound: Cc1c(OCC(F)(F)F)ccnc1C[S+]([O-])c1nc2ccccc2[nH]1 (stereo not drawn)
471

Give me measured AUC of viability dose-response curve, please, for this compound: Nc1ccc([S+](=O)([O-])Nc2ccccn2)cc1
445

Give me measured AUC of viability dose-response curve, please, for this compound: CN1CCN(c2cccc(Nc3nc4c(-c5ccc([S+](C)(=O)[O-])cc5)cccn4n3)c2)CC1
435

Give me measured AUC of viability dose-response curve, please, for this compound: CN[C@@H](C)C(=O)N[C@H]1CCCC[C@H]2CC[C@@H](C(=O)N[C@@H](c3ccccc3)c3cn(CCCCc4ccc(CCCCn5cc([C@@H](NC(=O)[C@@H]6CC[C@@H]7CCCC[C@H](NC(=O)[C@H](C)NC)C(=O)N76)c6ccccc6)nn5)cc4)nn3)N2C1=O
450

Give me measured AUC of viability dose-response curve, please, for this compound: Cn1c(CCCC(=O)O)nc2cc(N(CCCl)CCCl)ccc21
451

Give me measured AUC of viability dose-response curve, please, for this compound: CC1(C)O[C@H]2CC(=O)OC[C@]23[C@H]2CC[C@@]4(C)[C@H](c5ccoc5)OC(=O)[C@H]5O[C@]54[C@]2(C)C(=O)C[C@@H]13
469

Give me measured AUC of viability dose-response curve, please, for this compound: CC(C)(C)C1=NC2=C([NH]1)C3=CC=C(F)C=C3C4=C2\C=C/NC4=O
408

Give me measured AUC of viability dose-response curve, please, for this compound: N#Cc1c(C2CCNCC2)cc(-c2c(O)cccc2OCC2CC2)nc1N
446

* * *

test system: SEM cells; experiment: cell viability relative to DMSO control; higher = less cytotoxic; details: RPMI 5 mM glucose + 10% FBS; 48 h; 0.19 µM
endpoint.name: cell viability (%)
Report the figure in % without appending any unit label.

Give me measured cell viability, please, for this molecule: O=C(Oc1ccc([N+](=O)[O-])cc1)N1CCN(Cc2cccc(Oc3ccccc3)c2)CC1
67.1

Give me measured cell viability, please, for this molecule: COc1ccc([C@@H]2CNC(=O)C2)cc1OC1CCCC1
98.6

Give me measured cell viability, please, for this molecule: COc1ccc(-c2nc3cc(C4=NNC(=O)CC4C)ccc3[nH]2)cc1 (configuration not stated)
121

Give me measured cell viability, please, for this molecule: CN(C(=O)c1ccc(F)cc1C(F)(F)F)C1CCN(c2nnc(-c3ccnn3C)c3ccccc23)CC1
77.6

Give me measured cell viability, please, for this molecule: Cn1c(=O)c2c(ncn2CC(O)CO)n(C)c1=O (configuration not stated)
123

Give me measured cell viability, please, for this molecule: O=C(NC1CC1)c1cccc(-c2ccc3c(NC(=O)C4CC4)n[nH]c3c2)c1
98.4

Give me measured cell viability, please, for this molecule: c1cc(-c2sc(-c3ccncc3)c(-c3ccncc3)c2-c2ccncc2)ccn1
97.9

Give me measured cell viability, please, for this molecule: CC1(C)CC(=O)c2c(C(F)(F)F)nn(-c3ccc(C(N)=O)c(NC4CCC(OC(=O)CN)CC4)c3)c2C1 (configuration not stated)
73.3

Give me measured cell viability, please, for this molecule: CNC(=O)c1cc(Oc2ccc(NC(=O)Nc3cc(C(C)(C)C)nn3-c3ccc4ncccc4c3)c(F)c2)ccn1
99.2

Give me measured cell viability, please, for this molecule: CC(C)(C)C1=NC2=C([NH]1)C3=CC=C(F)C=C3C4=C2\C=C/NC4=O
138

Give me measured cell viability, please, for this molecule: N/C(=N\C(=O)c1nc(Cl)c(N)nc1N)NCc1ccccc1
96.5

Give me measured cell viability, please, for this molecule: Cc1nc2c([nH]1)-c1ccccc1N(C(=O)c1ccc(NC(=O)c3ccccc3-c3ccccc3)cc1)CC2
129

Give me measured cell viability, please, for this molecule: Clc1ccc(COC(Cn2ccnc2)c2ccc(Cl)cc2Cl)cc1 (configuration not stated)
102

Give me measured cell viability, please, for this molecule: C[C@H]1[C@@H](CC(C[C@H]2O[C@@H]3O[C@]4(C)CC[C@H]5[C@H](C)CC[C@@H]([C@H]2C)[C@@]35OO4)C[S+](=O)([O-])c2ccc(COC(=O)N(C)C)cc2)O[C@@H]2O[C@]3(C)CC[C@H]4[C@H](C)CC[C@@H]1[C@@]24OO3
108

Give me measured cell viability, please, for this molecule: COc1ccc2cccc(CCNC(C)=O)c2c1
90

Give me measured cell viability, please, for this molecule: O=C1c2cccc(O)c2C(=O)c2c(O)cc(CO)cc21
45

Give me measured cell viability, please, for this molecule: CN(C)c1nc(N(C)C)nc(N(C)C)n1
101

Give me measured cell viability, please, for this molecule: CN1[C@@H]2CC(O)C[C@H]1[C@@H]1O[C@@H]12 (some centres not stated)
115

Give me measured cell viability, please, for this molecule: CC1(C)O[C@H]2CC(=O)OC[C@]23[C@H]2CC[C@@]4(C)[C@H](c5ccoc5)OC(=O)[C@H]5O[C@]54[C@]2(C)C(=O)C[C@@H]13
86

Give me measured cell viability, please, for this molecule: CCOC(=O)c1ncn2c1CN(C)C(=O)c1cc(F)ccc1-2
98.6

Give me measured cell viability, please, for this molecule: COc1cc(/C=C/C(=O)CC(=O)/C=C/c2ccc(O)c(OC)c2)ccc1O
120

Give me measured cell viability, please, for this molecule: NC/1=N/C(=O)N(/C=C1)[C@H]2CC[C@@H](CO)O2
101

* * *

system: P12-Ichikawa; assay: cell viability relative to DMSO control; higher = less cytotoxic; conditions: HPLM + 10% dialyzed FBS; 48 h; 15.4 µM
endpoint.name: cell viability
Quick note: unit goes after the number.

Give me measured cell viability, please, for this compound: Cc1nc2c([nH]1)-c1ccccc1N(C(=O)c1ccc(NC(=O)c3ccccc3-c3ccccc3)cc1)CC2
128%

Give me measured cell viability, please, for this compound: NC12CC3CC(CC(C3)C1)C2
114%

Give me measured cell viability, please, for this compound: Nc1cccc(-c2cc3c(Oc4cccc(O)c4)ncnc3[nH]2)c1
60.5%

Give me measured cell viability, please, for this compound: N/C(=N\C(=O)c1nc(Cl)c(N)nc1N)NCc1ccccc1
98.7%

Give me measured cell viability, please, for this compound: CCCCOc1ccc(C(=O)Nc2ccc(F)cc2F)cc1
102%

Give me measured cell viability, please, for this compound: C=C1C[C@@]2(O)O[C@@]3(C[C@H]2C(C)C)[C@@H](C)CC[C@@H]13
125%

Give me measured cell viability, please, for this compound: Cc1ccc(F)c(NC(=O)Nc2ccc(-c3cccc4[nH]nc(N)c34)cc2)c1
111%

Give me measured cell viability, please, for this compound: COC(=O)N[C@H](C(=O)N[C@@H](Cc1ccccc1)[C@@H](O)CN(Cc1ccc(-c2ccccn2)cc1)NC(=O)[C@@H](NC(=O)OC)C(C)(C)C)C(C)(C)C
101%

Give me measured cell viability, please, for this compound: Clc1ccc(COC(Cn2ccnc2)c2ccc(Cl)cc2Cl)cc1 (stereo not drawn)
116%

Give me measured cell viability, please, for this compound: COc1ccc(Cn2ccc3ccc(C(=O)NO)cc32)cc1
90.3%

Give me measured cell viability, please, for this compound: COc1ccc(CCC(=O)Nc2nc3ccc(Cl)cc3s2)cc1OC
99.3%

Give me measured cell viability, please, for this compound: CC1OC(OC/2=C(/OC3=C(C(=CC(=C3)O)O)C2=O)C4=CC=C(O)C=C4)C(O)C(OC(C)=O)C1OC(C)=O (stereo not drawn)
103%

Give me measured cell viability, please, for this compound: CCC(=O)O[C@@]1([C@H](C)C[C@H]2[C@@H]3C[C@H](F)\C4=C\C(=O)\C=C/[C@]4(C)[C@@]3(F)[C@@H](O)C[C@]12C)C(=O)SCF
69.8%

* * *

tested on: P12-Ichikawa; assay: cell viability relative to DMSO control; higher = less cytotoxic; conditions: RPMI 5 mM glucose + 10% dialyzed FBS; 48 h; 0.0632 µM
Please go through the items and note down their cell viability.
Report the figure in % without appending any unit label.

Give me measured cell viability, please, for this compound: NC/1=N/C(=O)N(/C=C1)[C@H]2CC[C@@H](CO)O2
85.1

Give me measured cell viability, please, for this compound: C[C@H]1CCC/C=C/C2C[C@H](O)C[C@H]2[C@H](O)/C=C/C(=O)O1 (some centres not stated)
12.7

Give me measured cell viability, please, for this compound: COc1ccc2cccc(CCNC(C)=O)c2c1
104

Give me measured cell viability, please, for this compound: CC1=C2N=C([NH]C2=CC(=C1)N3CCOCC3)\C4=C(NC[C@@H](O)C5=CC=CC(=C5)Cl)\C=C/NC4=O
116

Give me measured cell viability, please, for this compound: Cc1c(OCC(F)(F)F)ccnc1C[S+]([O-])c1nc2ccccc2[nH]1 (configuration not stated)
104

Give me measured cell viability, please, for this compound: COc1cc(/C=C/C(=O)CC(=O)/C=C/c2ccc(O)c(OC)c2)ccc1O
104

Give me measured cell viability, please, for this compound: COc1ccc([C@@H]2CNC(=O)C2)cc1OC1CCCC1
118

Give me measured cell viability, please, for this compound: COc1ccc(-c2c(-c3ccc(O)cc3O)n[nH]c2C)cc1
107

Give me measured cell viability, please, for this compound: C[C@@]12OC(=O)[C@@]1(NC(=O)[C@@H]2CCCl)[C@@H](O)[C@H]\3CCC\C=C3
108

Give me measured cell viability, please, for this compound: O=C1c2cccc(O)c2C(=O)c2c(O)cc(CO)cc21
91.8

Give me measured cell viability, please, for this compound: CN1C(=O)COc2c(C(=O)NC3CN4CCC3CC4)cc(Cl)cc21 (configuration not stated)
101

Give me measured cell viability, please, for this compound: Cn1cc(-c2ccc3ncc(Cc4ccc5ncccc5c4)n3n2)cn1
110
